Give measured viability, T/C for each item. Keep answers brief.
System: DU-145 multicell spheroids with HUVEC/MSC, viability
test.name: Anticancer human tumor DU-145 cell line growth inhibition [IpAb];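 note: spheroids exposed to agents for seven days before measurement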;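 for viability, T/C: percent of DMSO vehicle control viability so 100% = untreated level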
measurement.conditions: second compound 0.316 µM; first compound 0.001 µM; stronger effect = lower value
Provide only the numeric value, understood in %.

Req: Kindly state the measured viability, T/C obtained for CC(C)n1nc(-c2ccc3oc(N)nc3c2)c2c(N)ncnc21 + CC(C)NCC(C(=O)N1CCN(c2ncnc3c2C(C)CC3O)CC1)c1ccc(Cl)cc1 with DU-145 multicell spheroids with HUVEC/MSC, viability.
Resp: 32.3

Req: Please state recorded viability, T/C (tested on DU-145 multicell spheroids with HUVEC/MSC, viability) of Cn1ncnc1[C@H]1c2n[nH]c(=O)c3cc(F)cc(c23)N[C@@H]1c1ccc(F)cc1 + CCN1CCN(Cc2ccc(Nc3ncc(F)c(-c4cc(F)c5nc(C)n(C(C)C)c5c4)n3)nc2)CC1
Resp: 78

Req: So what viability, T/C did CC(C)n1nc(-c2ccc3oc(N)nc3c2)c2c(N)ncnc21 + CCN1CCN(Cc2ccc(Nc3ncc(F)c(-c4cc(F)c5nc(C)n(C(C)C)c5c4)n3)nc2)CC1 get with DU-145 multicell spheroids with HUVEC/MSC, viability?
Resp: 58.8

Req: Which viability, T/C is reported with DU-145 multicell spheroids with HUVEC/MSC, viability for this entry: Cn1ncnc1[C@H]1c2n[nH]c(=O)c3cc(F)cc(c23)N[C@@H]1c1ccc(F)cc1 + CC(C)NCC(C(=O)N1CCN(c2ncnc3c2C(C)CC3O)CC1)c1ccc(Cl)cc1 ?
Resp: 57.8

* * *

Kindly supply the reported viability, T/C values for the records listed here.
Test system: DU-145 multicell spheroids with HUVEC/MSC, viability
test.name: Anticancer human tumor DU-145 cell line growth inhibition [IpAb];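 note: spheroids exposed to agents for seven days before measurement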;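 for viability, T/C: percent of DMSO vehicle control viability so 100% = untreated level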
measurement.conditions: second compound 0.316 µM; first compound 10 µM; stronger effect = lower value
Write the answer as a number in %, unit excluded.

Req: Entry C=CCn1c(=O)c2cnc(Nc3ccc(N4CCN(C)CC4)cc3)nc2n1-c1cccc(C(C)(C)O)n1 + CCN1CCN(Cc2ccc(Nc3ncc(F)c(-c4cc(F)c5nc(C)n(C(C)C)c5c4)n3)nc2)CC1 has what viability, T/C?
Resp: 10.9

Req: viability, T/C for Cc1nc(NC(=O)N2CCCC2C(N)=O)sc1-c1ccnc(C(C)(C)C(F)(F)F)c1 (stereo not given) + CC(C)NCC(C(=O)N1CCN(c2ncnc3c2C(C)CC3O)CC1)c1ccc(Cl)cc1 ?
Resp: 6.56

Req: Give the measured viability, T/C of Cn1ncc(Cl)c1-c1cc(C(=O)NC(CN)Cc2cccc(F)c2)sc1Cl (stereo not given) + CCN1CCN(Cc2ccc(Nc3ncc(F)c(-c4cc(F)c5nc(C)n(C(C)C)c5c4)n3)nc2)CC1 .
Resp: 0.85

Req: Which value of viability, T/C has been reported for Cn1nccc1Nc1nccc(-c2ccn(C(CO)c3ccc(Cl)c(F)c3)c(=O)c2)n1 (stereo not given) + CC(C)NCC(C(=O)N1CCN(c2ncnc3c2C(C)CC3O)CC1)c1ccc(Cl)cc1 in the records?
Resp: 60.3

Req: Request the reported viability, T/C associated with C=CC(=O)N1CCN(c2nc(=O)n(-c3c(C)ccnc3C(C)C)c3nc(-c4c(O)cccc4F)c(F)cc23)C(C)C1 (stereo not given) + CC(C)NCC(C(=O)N1CCN(c2ncnc3c2C(C)CC3O)CC1)c1ccc(Cl)cc1
Resp: 37.8

* * *

Tested on: DU-145 multicell spheroids with HUVEC/MSC, viability
test.name: Anticancer human tumor DU-145 cell line growth inhibition [IpAb];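 note: spheroids exposed to agents for seven days before measurement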;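 for viability, T/C: percent of DMSO vehicle control viability so 100% = untreated level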
measurement.conditions: second compound 1 µM; first compound 3.16 µM; stronger effect = lower value
Method: Combinatorial screen of targeted agents with ipatasertib and abemaciclib in multi-cell type tumor spheroids […] Compounds. […] If the clinical Cmax for an agent had not been determined, the highest concentration tested was 10 microM. NCI60 Cell Culture. […] The optimal seeding densities for each of the cell lines at each time point assessed were determined prior to performing the concentration response studies. […]
observed.property: viability, T/C

Req: Lab note: need viability, T/C with DU-145 multicell spheroids with HUVEC/MSC, viability for entry Cn1ncc(Cl)c1-c1cc(C(=O)NC(CN)Cc2cccc(F)c2)sc1Cl (centres undefined) + CCN1CCN(Cc2ccc(Nc3ncc(F)c(-c4cc(F)c5nc(C)n(C(C)C)c5c4)n3)nc2)CC1 , please look it up.
Resp: 25.8%

Req: Hi! What's the reported viability, T/C for CCCS(=O)(=O)Nc1ccc(F)c(C(=O)c2c[nH]c3ncc(-c4ccc(Cl)cc4)cc23)c1F + CC(C)NCC(C(=O)N1CCN(c2ncnc3c2C(C)CC3O)CC1)c1ccc(Cl)cc1 on DU-145 multicell spheroids with HUVEC/MSC, viability?
Resp: 46.3%

Req: Recall the recorded viability, T/C for Cc1nc(NC(=O)N2CCCC2C(N)=O)sc1-c1ccnc(C(C)(C)C(F)(F)F)c1 (centres undefined) + CC(C)NCC(C(=O)N1CCN(c2ncnc3c2C(C)CC3O)CC1)c1ccc(Cl)cc1 with DU-145 multicell spheroids with HUVEC/MSC, viability and state it.
Resp: 12.4%

Req: Lab request: please report viability, T/C under test system DU-145 multicell spheroids with HUVEC/MSC, viability for Cn1ncc(Cl)c1-c1cc(C(=O)NC(CN)Cc2cccc(F)c2)sc1Cl (centres undefined) + CC(C)NCC(C(=O)N1CCN(c2ncnc3c2C(C)CC3O)CC1)c1ccc(Cl)cc1
Resp: 15.8%

* * *

Exercise: for every item that follows, state its recorded viability, T/C.
Test system: DU-145 multicell spheroids with HUVEC/MSC, viability
test.name: Anticancer human tumor DU-145 cell line growth inhibition [IpAb];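 note: spheroids exposed to agents for seven days before measurement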;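 for viability, T/C: percent of DMSO vehicle control viability so 100% = untreated level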
measurement.conditions: second compound 3.16 µM; first compound 3.16 µM; stronger effect = lower value
Provide only the numeric value, understood in %.

Req: Quick one: viability, T/C of C=CCn1c(=O)c2cnc(Nc3ccc(N4CCN(C)CC4)cc3)nc2n1-c1cccc(C(C)(C)O)n1 + CC(C)NCC(C(=O)N1CCN(c2ncnc3c2C(C)CC3O)CC1)c1ccc(Cl)cc1 ?
Resp: 11.8

Req: Name the recorded viability, T/C for CC1(C)CCC(CN2CCN(c3ccc(C(=O)NS(=O)(=O)c4ccc(NCC5CCOCC5)c([N+](=O)[O-])c4)c(Oc4cnc5[nH]ccc5c4)c3)CC2)=C(c2ccc(Cl)cc2)C1 + CC(C)NCC(C(=O)N1CCN(c2ncnc3c2C(C)CC3O)CC1)c1ccc(Cl)cc1 .
Resp: 19.9

Req: Which viability, T/C reading was recorded for the compound Cn1ncc(Cl)c1-c1cc(C(=O)NC(CN)Cc2cccc(F)c2)sc1Cl (stereo not drawn) + CC(C)NCC(C(=O)N1CCN(c2ncnc3c2C(C)CC3O)CC1)c1ccc(Cl)cc1 ?
Resp: 18.7

* * *

I'd appreciate it if you could supply pIC50 values for the items below.
Test system: DU-145 multicell spheroids with HUVEC/MSC, viability
test.name: Anticancer human tumor DU-145 cell line growth inhibition [IpAb];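 note: spheroids exposed to agents for seven days before measurement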
measurement.conditions: curve of first compound; second compound 0.316 µM
pIC50: −log10 of the molar value.

Req: Can you look up the measured pIC50 of CC(C)n1nc(-c2ccc3oc(N)nc3c2)c2c(N)ncnc21 + CC(C)NCC(C(=O)N1CCN(c2ncnc3c2C(C)CC3O)CC1)c1ccc(Cl)cc1 for me?
Resp: > 9.50

Req: Fill blank: measured pIC50 of the compound Cn1ncnc1[C@H]1c2n[nH]c(=O)c3cc(F)cc(c23)N[C@@H]1c1ccc(F)cc1 + CCN1CCN(Cc2ccc(Nc3ncc(F)c(-c4cc(F)c5nc(C)n(C(C)C)c5c4)n3)nc2)CC1 is ____.
Resp: < 7.00

Req: I am curious: what pIC50 value has been reported for Cc1nc(NC(=O)N2CCCC2C(N)=O)sc1-c1ccnc(C(C)(C)C(F)(F)F)c1 (stereo unspecified) + CC(C)NCC(C(=O)N1CCN(c2ncnc3c2C(C)CC3O)CC1)c1ccc(Cl)cc1 ?
Resp: > 7.50

Req: What measured pIC50 goes with CC(=O)c1c(C)c2cnc(Nc3ccc(N4CCNCC4)cn3)nc2n(C2CCCC2)c1=O + CCN1CCN(Cc2ccc(Nc3ncc(F)c(-c4cc(F)c5nc(C)n(C(C)C)c5c4)n3)nc2)CC1 ?
Resp: < 6.52

Req: What value of measured pIC50 is listed for CC(=O)c1c(C)c2cnc(Nc3ccc(N4CCNCC4)cn3)nc2n(C2CCCC2)c1=O + CC(C)NCC(C(=O)N1CCN(c2ncnc3c2C(C)CC3O)CC1)c1ccc(Cl)cc1 ?
Resp: < 6.52

Req: Sample Cn1nccc1Nc1nccc(-c2ccn(C(CO)c3ccc(Cl)c(F)c3)c(=O)c2)n1 (stereo unspecified) + CCN1CCN(Cc2ccc(Nc3ncc(F)c(-c4cc(F)c5nc(C)n(C(C)C)c5c4)n3)nc2)CC1 — what was its pIC50?
Resp: < 5.00

* * *

System: DU-145 multicell spheroids with HUVEC/MSC, viability
test.name: Anticancer human tumor DU-145 cell line growth inhibition [IpAb];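 note: spheroids exposed to agents for seven days before measurement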
measurement.conditions: curve of first compound; second compound 0.0316 µM
observed.property: IC50 (nM)
Expressed in nM, but write only the number.

Req: What value of IC50 has been recorded for this entry: Cc1nc(NC(=O)N2CCCC2C(N)=O)sc1-c1ccnc(C(C)(C)C(F)(F)F)c1 (centres undefined) + CCN1CCN(Cc2ccc(Nc3ncc(F)c(-c4cc(F)c5nc(C)n(C(C)C)c5c4)n3)nc2)CC1
Resp: 116

Req: Field request: IC50 | item: CC(C)(C)c1cnc(CSc2cnc(NC(=O)C3CCNCC3)s2)o1 + CCN1CCN(Cc2ccc(Nc3ncc(F)c(-c4cc(F)c5nc(C)n(C(C)C)c5c4)n3)nc2)CC1
Resp: 82.2

Req: What value of IC50 has been reported for the following compound? Cn1ncc(Cl)c1-c1cc(C(=O)NC(CN)Cc2cccc(F)c2)sc1Cl (centres undefined) + CCN1CCN(Cc2ccc(Nc3ncc(F)c(-c4cc(F)c5nc(C)n(C(C)C)c5c4)n3)nc2)CC1
Resp: 96.7

Req: Given the compound C=CCn1c(=O)c2cnc(Nc3ccc(N4CCN(C)CC4)cc3)nc2n1-c1cccc(C(C)(C)O)n1 + CCN1CCN(Cc2ccc(Nc3ncc(F)c(-c4cc(F)c5nc(C)n(C(C)C)c5c4)n3)nc2)CC1 , what is its reported IC50?
Resp: 88.3
